Where do these numbers come from? They come from patent US20250154277A1.

Biological target: T1, human 5T4-His protein (human, UniProt Q13641 32-355)
T1 construct: also called recombinant 5T4 protein (human 5T4-his tag); human 5T4 protein; not shown: His tag
T1 sequence (looked up): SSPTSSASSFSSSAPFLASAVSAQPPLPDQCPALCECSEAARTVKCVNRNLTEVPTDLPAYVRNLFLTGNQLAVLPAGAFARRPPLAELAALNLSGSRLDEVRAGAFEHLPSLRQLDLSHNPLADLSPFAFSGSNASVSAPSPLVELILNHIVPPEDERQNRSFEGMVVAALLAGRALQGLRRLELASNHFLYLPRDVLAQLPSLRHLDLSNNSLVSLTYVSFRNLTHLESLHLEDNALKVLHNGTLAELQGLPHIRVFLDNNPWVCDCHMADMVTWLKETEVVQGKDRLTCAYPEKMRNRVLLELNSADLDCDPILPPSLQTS
Experiment: ELISA, coated 5T4-His
Item-by-item account of EC50

{"binder": "Hu14G12-38 (antibody, V domains shown, humanized) VH: QVQLVQSGAEVKKPGASVKVSCKASGYAFSSSWMNWVRQAPGQRLEWMGRIYREDGHTNYNGKFKGRVTITADKSATTAYMELSSLRSEDTAVYYCANGGAMDYWGQGTLVTVSS VL: DIQMTQSPSSLSASVGDRVTITCRASQDISNYLNWYQQKPGKAPKLLIYYTSRLHSGVPSRFSGSGSGTDYTFTISSLQPEDIATYFCQQDNTLPWTFGGGTKVEIK", "reading": "0.0064 µg/mL"}
{"binder": "Hu14G12-30 (antibody, V domains shown, humanized) VH: QVQLVQSGAEVKKPGASVKVSCKASGYAFSSSWMNWVRQAPGQGLEWMGRIYREDGHTNYNGKFKGRVTMTADKSITTAYMELSRLRSDDTAVYYCANGGAMDYWGQGTLVTVSS VL: EIVMTQSPATLSLSPGERATLSCRASQDISNYLNWYQQKPGQAPRLLIYYTSRLHSGIPARFSGSGSGTDYTLTISSLEPEDIAVYFCQQDNTLPWTFGGGTKVEIK", "reading": "0.01 µg/mL"}
{"binder": "Hu14G12-15 (antibody, V domains shown, humanized) VH: EVQLVQSGAEVKKPGATVKISCKASGYAFSSSWMNWVKQAPGKGLEWIGRIYREDGHTNYNGKFKGRATITADTSTTTAYMELSSLRSEDSAVYFCANGGAMDYWGQGTLVTVSS VL: DIQMTQSPSSLSASVGDRVTISCRASQDISNYLNWYQQKPGKAVKLLIYYTSRLHSGVPSRFSGSGSGTDFTFTISSLQPEDIATYFCQQDNTLPWTFGGGTKLEIK", "reading": "0.014 µg/mL"}
{"binder": "Hu14G12-40 (antibody, V domains shown, humanized) VH: QVQLVQSGAEVKKPGASVKVSCKASGYAFSSSWMNWVRQAPGQRLEWMGRIYREDGHTNYNGKFKGRVTITADKSATTAYMELSSLRSEDTAVYYCANGGAMDYWGQGTLVTVSS VL: EIVMTQSPATLSLSPGERATLSCRASQDISNYLNWYQQKPGQAPRLLIYYTSRLHSGIPARFSGSGSGTDYTLTISSLEPEDIAVYFCQQDNTLPWTFGGGTKVEIK", "reading": "0.028 µg/mL"}

Next item in the queue.
Would you kindly share the measured EC50 for Hu14G12-2 (antibody, V domains shown, humanized) VH: EVQLVQSGAEVKKPGATVKISCKVSGYAFSSSWMNWVQQAPGKGLEWMGRIYREDGHTNYNGKFKGRVTITADTSTDTAYMELSSLRSEDTAVYYCATGGAMDYWGQGTLVTVSS VL: DIQMTQSPSSLSASVGDRVTITCRASQDISNYLNWYQQKPGKAPKLLIYYTSRLHSGVPSRFSGSGSGTDYTFTISSLQPEDIATYFCQQDNTLPWTFGGGTKLEIK ?
0.021 µg/mL
